ENDPOINT NAME: melting point

Lab note: measured melting point of CC(C(=O)OCCO)n1c(-c2ccc(Cl)cc2)nc2cccnc21 (stereo not given) was 112 to 114 °C

The value of melting point measured for the compound Cc1ccccc1-c1cccc(C=CC(=O)O)c1 turned out to be 124 to 125 °C

The reported melting point of the compound CN(Cc1ccc2c(Br)c(O)ccc2c1)C(=O)c1cn(Cc2ccccc2)c2ccccc12 was 181 to 182 °C

Lab book: melting point of CN1C(=O)N(Cc2ccccc2)CC1(CCO)c1ccc(Cl)c(Cl)c1 (stereo not given) noted as 118 °C

Lab book: melting point of CCNC(=O)c1ccccc1OC(C)(C)C noted as 34.5 to 36 °C

====

ENDPOINT NAME: melting point

For CC1(c2ccc(O)c([N+](=O)[O-])c2)C(=O)Nc2cc(Cl)cc(Cl)c2C1=O (stereo not given) the compound record lists melting point as 239 to 240 °C

Measured melting point, CCCCc1c[nH]cn1 : 42 to 45 °C

Noted for CCn1ccc(Nc2cc(-c3cccc(N4Cc5cc(C(C)(C)C)ccc5C4=O)c3CO)cn(C)c2=O)n1 : its melting point reads 175 to 177 °C

Please fill in: melting point reported for CNC(=O)CCC(=O)c1c(O)cccc1OC = 125 °C

The recorded melting point for entry O=c1[nH]c(=O)c2cc(Oc3ccc(F)cc3F)ncc2[nH]1 equals > 300 °C

Form field melting point, entry CC(C)CNCC(=O)Nc1cccc2c1C(=O)c1c(NC(=O)CNCC(C)C)cccc1C2=O : 139 to 140 °C

For record Cc1ccccc1C(c1c[nH]cn1)c1ccccc1C the listed melting point is 228 to 231 °C

// field: melting point; key: COc1ccc(-c2cc3c4n(ccc-3n2)CC(C)=N4)cc1 ; value = 168 °C

Entry Cc1nc(CC2CCc3c(C)c4ccccc4n3C2=O)c(C)[nH]1 (stereo not given) ; melting point = 219 to 221 °C

CSc1ccc2ccc(Br)cc2c1 yielded melting point of 80 to 81 °C

====

ENDPOINT NAME: melting point

compound O=C(O)c1cc(=O)cc(-c2ccccc2Cl)o1 , melting point observed: 241 to 246 °C

# melting point of O=C(c1ccc(F)cc1)C1CC2CCN1CC2 (stereo not given) = 68 to 69 °C

# melting point (compound: CCC(=O)c1ccc2c(c1)C(C(Cl)(Cl)Cl)OC(C(Cl)(Cl)Cl)O2 (stereo not given) ) is 96 to 97 °C

Entry CCc1[nH]n(C2CCCC2)c2nc(-c3ccccc3O)nc(=O)c1-2 ; melting point = 272 to 273 °C

Consider CCn1cc(C(=O)O)c(=O)c2cc(F)c(N3CCN(Cc4ccc(N)cc4)CC3)c(F)c21 . Its measured melting point is 220 to 221 °C

For record CNC(=O)C(=NOCF)c1ccccc1COc1ccccc1C the listed melting point is 86 to 88 °C

So for CNC(=O)C=C(c1ccc(C#N)cc1)n1ccnc1 , the logged melting point turned out to be 172 to 180 °C

melting point reported for this compound N=C(N)Nc1nc(CSCCNC=NS(=O)(=O)c2ccc(Br)cc2)cs1 : 142 to 146 °C

Entry COC(=O)c1cccc(CN2C(=O)C3(COc4cc5c(cc43)OCCO5)c3ccccc32)c1 (stereo not given) , melting point reported as 89 to 97 °C

In plain terms, CCOC(=O)COc1cccc2nc3c(c(N)c12)CCCC3 has a documented melting point of 141 to 142 °C

====

Assignment: determine reported melting point for the given compounds.

Reported melting point ( COC(=O)c1[nH]c2c(C)ccc(C)c2c1S(C)(=O)=O ) = 163 to 164 °C

// sample OCC1(Cc2ccccc2)CCC2(CC1)OCCO2 , its melting point was 76 to 78 °C

Query Nc1c(F)c(N2CCC(C(N)c3cccnc3)C2)c(F)c2c1c(=O)c(C(=O)O)cn2C1CC1F (stereo not given) yields melting point of 123 to 126 °C

Please fill in: melting point reported for Cc1c2c(c(-c3ccc4c(c3)OCO4)c3c4c(ccc13)OCO4)CNC2=O = 292 to 293 °C

Quick note, melting point for CCN(CC)C1=C2N=c3cc(Cl)ccc3=C2Oc2ccccc2N1C landed at 127 to 128 °C

Memo: COCC(O)COc1ccc2cc(S(N)(=O)=O)sc2c1 (stereo not given) , reported melting point: 128 to 129 °C

So, COc1ccc(C(=O)Nc2c(Cl)cncc2Cl)cc1OC1CCCC1 ? Its melting point was 153 to 155 °C

The value of melting point measured for the compound N#Cc1ccc(N(Cc2ccc(OCc3ccccc3)cc2)n2cnnc2)cc1-c1ccc(C(F)(F)F)cc1 turned out to be 173 to 175 °C

The recorded melting point for CCOC(=O)Cc1c([N+](=O)[O-])cc(O)c2ccccc12 is 96 to 100 °C

The recorded melting point for entry CC1(c2cn(-c3c(Cl)cc(C(F)(F)F)cc3Cl)nc2C#N)CC1 equals 138 to 139 °C

====

ENDPOINT NAME: melting point

Data point: C[C@H](CN(O)C(N)=O)NC(=O)c1cccc(Oc2ccccc2)c1 ; melting point = 154 °C

The compound listed as COc1cc(C)nc(NC(=O)NS(=O)(=O)c2ccccc2C(O)CF)n1 (configuration not stated) shows melting point equal to 153 to 155 °C

The reported melting point of the compound CCCCCCC(C(=O)O)c1ccc(NC(=O)C2(O)c3ccccc3-c3ccccc32)cc1 (configuration not stated) was 183 to 185 °C

Recorded result, CC1(c2ccc(C#N)cc2)Cc2cc(O)c(Cl)c(Cl)c2C1=O (configuration not stated) , melting point: 189 to 196 °C

The compound identified as c1cc(Nc2csc3cnccc23)ccn1 registered its melting point at 236 to 238 °C

Notebook: Clc1ccc2ncc3nc(Br)n(-c4ccccc4Cl)c3c2c1 , melting point read as 183 to 192 °C

The measured melting point associated with O=CN1CCC(c2noc3cc(Cl)ccc23)CC1 reads 114 to 115 °C

Record summary for CCOC(=O)C1=C(C)NC(c2ccc(C)cc2)=C(C(=O)OCC)C1c1cccc([N+](=O)[O-])c1 (configuration not stated) : reported melting point = 149 to 150 °C

The compound identified as CC(C)c1cc2n(CCc3ccccc3)cc(C(=O)O)c(=O)n2n1 registered its melting point at 220 to 225 °C

Lookup result for CCOC1=NC(C)(C)NC(N)=N1 ; measured melting point: 175 to 178 °C

# melting point (compound: COC(=O)c1cc(-c2ccc(OC)cc2)nn(CC(=O)Nc2ccc(SC)cc2)c1=O ) is 130 to 132 °C

For reference, reported melting point for Cc1ccnc(S(=O)(=O)c2ccccc2)c1 stands at 128 to 129 °C

Data point: CCOC(=O)c1c(-c2cccc(Cl)c2)c2cc(C(c3nc(-c4ccccc4)cs3)n3ccnc3-c3ccccc3)ccc2[nH]c1=O (configuration not stated) ; melting point = 149 °C

Kindly note the recorded melting point for OC(=S)CCc1ccc(Cl)c(Cl)c1 , which is 63 to 64 °C

// field: melting point; key: CS(=O)(=O)c1nc(N)c2ncn(C3CCCCC3)c2n1 ; value = 272 to 274 °C

Entry CN(C)c1ccc2c(c1)C(=O)OC2 , melting point reported as 182 to 185 °C

Entry COCc1c(C(=O)OC(C)C)ncc2[nH]c3cccc(Cc4ccccc4Cl)c3c12 , melting point reported as 187 to 189 °C

melting point reported for this compound N#Cc1c(OCC(F)(F)F)nc(C2CC2)nc1N1CCc2ccccc2CC1 : 116 to 118 °C

The compound COc1nc(N)nc2c1ncn2C1O[C@H](CO)C[C@@]1(C)O (some centres not stated) showed melting point equal to 140 to 142 °C

Looking up COc1ccc(S(=O)(=O)Nc2ccc(N(C)C)nc2Nc2ccccc2)cc1 , I found its melting point recorded as 152 to 153 °C

// melting point value for COc1ccc(Cc2cnc(NCCSCc3csc(CN(C)C)n3)[nH]c2=O)cn1 : 137 to 138 °C

Reported melting point for Cc1ccc(-c2cc(OCC(=O)N3CCOCC3)c3ccccc3n2)cc1 was 146 °C

For record Cc1nnc(C(=O)CCCCCCOc2ccccc2)o1 the listed melting point is 75 to 77 °C

Form: compound = SCC1=NC2CCCCC2N1 (configuration not stated) ; melting point = 125 to 129 °C

For reference, reported melting point for O=C(Cc1ccccc1)N1CCN(c2ccc(Cl)cc2)CC1 stands at 93 to 94 °C

N#CNC(=O)c1cc2cc(N3CCN(CCCCc4c[nH]c5ccc(C#N)cc45)CC3)ccc2o1 yielded melting point of 190 °C

For reference, reported melting point for COCCN(C)c1nccc(Oc2ccc(NC(=O)c3cc(F)cc(N4CCCCC4)c3)c3ccccc23)n1 stands at 81 to 82 °C

Form: compound = Cc1ccc(C(=O)Nc2ccc(S(N)(=O)=O)cc2)c(SSc2cc(C)ccc2C(=O)Nc2ccc(S(N)(=O)=O)cc2)c1 ; melting point = 319 to 320 °C

Sample CC(C)Oc1cncc(Br)c1 ; melting point observed: 144 to 146 °C

melting point reported for this compound CCOC(=O)C(CCCCCCl)=NO : 36 to 38 °C

Entry under test: Cc1csc2[nH]c(=O)n(CCC(C(=O)NO)N(C)S(=O)(=O)c3ccc(Oc4ccccc4)cc3)c(=O)c12 (configuration not stated) . Its melting point was 142 to 144 °C

// field: melting point; key: C=CCC12CCC(c3ccccc31)c1ccccc12 ; value = 42 to 43 °C

Quick note, melting point for CC(O)=C(C#N)C(=O)Nc1ccc(OC(F)(F)F)c(Br)c1 landed at 178 to 179 °C

Entry CCC1Cc2c(Br)cccc2C1O[Si](C)(C)C (configuration not stated) ; melting point = 133 to 135 °C

Summary for this compound, O=c1[nH]c2ccccc2n2ccnc12 : melting point is > 300 °C

// field: melting point; key: CCOC=C(C(=O)O)C(=O)C1CC1 ; value = 108 to 113 °C

Measured melting point, CC[C@H](Nc1nc(Nc2cccc(NS(C)(=O)=O)c2)nc2[nH]cnc12)c1ccccc1 : 138 to 141 °C

Just so you know, measured melting point for CC(C)c1cc2nc(N)[nH]c(=O)c2cc1-c1ccc(Cl)cc1 came out at 326 to 330 °C

According to the records, this compound CC(C)(C)OC(=O)NCCn1c(=S)[nH][nH]c(=O)c1=O displays melting point of 160 °C

// field: melting point; key: CC(=O)NCCCCC(=O)OC1c2ccccc2C(=O)N1c1ccc2ccc(Cl)nc2n1 (configuration not stated) ; value = 185 °C

Query CCCC1=C(C(=O)OCC)C(c2ccccc2OC2CCCC2)c2c[nH]nc2N1 (configuration not stated) yields melting point of 195 °C

# compound Cc1nc2scc(C)n2c1S(N)(=O)=O ; its melting point = 177 to 178 °C

Recorded values, source a melting point compilation (Tetko et al.; mined from patent text by program, amines drawn as free bases though some values may be those of a salt).
